Entry source: patent US11807625B2

test: PK of compound of Formula (Ia) after single subcutaneous dose of solution formulations in beagle dogs; type: in vivo; details: male, beagle, dog, plasma, sc, 6 mg/kg, 1008 h; mean, n = 3 dogs; SC 6 mg/kg; solution V, 300 mg/mL
Readout type: concentration at 1008 h (nM)

INSERT INTO measurements (molecule, val) VALUES
  ('CC(C)(C#Cc1ccc(-c2ccc(Cl)c3c(NS(C)(=O)=O)nn(CC(F)(F)F)c23)c([C@H](Cc2cc(F)cc(F)c2)NC(=O)Cn2nc(C(F)(F)F)c3c2C(F)(F)[C@@H]2C[C@H]32)n1)S(C)(=O)=O [compound of Formula (Ia)]', 30.2);

* * *

assay: PK of compound of Formula (Ia) after single subcutaneous dose of solution formulations in beagle dogs; type: in vivo; settings: male, beagle, dog, plasma, sc, 6 mg/kg, 168 h; individual dogs; SC 6 mg/kg; solution V, 300 mg/mL
Readout type: concentration at 168 h (nM)

INSERT INTO assay_data (compound, readout_type, val) VALUES
  ('CC(C)(C#Cc1ccc(-c2ccc(Cl)c3c(NS(C)(=O)=O)nn(CC(F)(F)F)c23)c([C@H](Cc2cc(F)cc(F)c2)NC(=O)Cn2nc(C(F)(F)F)c3c2C(F)(F)[C@@H]2C[C@H]32)n1)S(C)(=O)=O [compound of Formula (Ia)]', 'concentration at 168 h', 41.8);

* * *

assay: PK of compound of Formula (Ia) after single subcutaneous dose of solution formulations in Wistar Han rats; format: in vivo; conditions: male, Wistar Han, rat, plasma, sc, 50 mg/kg, Wistar Han rats, SC 50 mg/kg, 400 mg/mL solution AA (6.25% poloxamer 188), 504 h, Mean n = 4
Readout type: concentration at 504 h (nM)

INSERT INTO measurements (test_smiles, val) VALUES
  ('CC(C)(C#Cc1ccc(-c2ccc(Cl)c3c(NS(C)(=O)=O)nn(CC(F)(F)F)c23)c([C@H](Cc2cc(F)cc(F)c2)NC(=O)Cn2nc(C(F)(F)F)c3c2C(F)(F)[C@@H]2C[C@H]32)n1)S(C)(=O)=O', 131);

* * *

test: PK of compound of Formula (Ia) after single subcutaneous dose of solution formulations in beagle dogs; type: in vivo; conditions: male, beagle, dog, plasma, sc, 12 mg/kg, beagle dogs, SC 12 mg/kg, 500 mg/mL solution X (5.00% ethanol, 1.91% poloxamer 188), 672 h, Mean n = 3
Readout type: concentration at 672 h (nM)

INSERT INTO measurements (compound, readout_type, val) VALUES
  ('CC(C)(C#Cc1ccc(-c2ccc(Cl)c3c(NS(C)(=O)=O)nn(CC(F)(F)F)c23)c([C@H](Cc2cc(F)cc(F)c2)NC(=O)Cn2nc(C(F)(F)F)c3c2C(F)(F)[C@@H]2C[C@H]32)n1)S(C)(=O)=O [compound of Formula (Ia)]', 'concentration at 672 h', 110);

* * *

assay: PK of compound of Formula (Ia) after single subcutaneous dose of solution formulations in Wistar Han rats; format: in vivo; conditions: male, Wistar Han, rat, plasma, sc, 50 mg/kg, 2352 h; individual rats; SC 50 mg/kg; solution S, 500 mg/mL
Readout type: concentration at 2352 h (nM)

INSERT INTO measurements (test_smiles, readout_type, unit_of_measurement, val) VALUES
  ('CC(C)(C#Cc1ccc(-c2ccc(Cl)c3c(NS(C)(=O)=O)nn(CC(F)(F)F)c23)c([C@H](Cc2cc(F)cc(F)c2)NC(=O)Cn2nc(C(F)(F)F)c3c2C(F)(F)[C@@H]2C[C@H]32)n1)S(C)(=O)=O', 'concentration at 2352 h', 'nM', 231);
